Parameter pIC50: see the listing below.
# target entity: protein kinase C eta (Homo sapiens)
# Sequence (P24723 whole entry): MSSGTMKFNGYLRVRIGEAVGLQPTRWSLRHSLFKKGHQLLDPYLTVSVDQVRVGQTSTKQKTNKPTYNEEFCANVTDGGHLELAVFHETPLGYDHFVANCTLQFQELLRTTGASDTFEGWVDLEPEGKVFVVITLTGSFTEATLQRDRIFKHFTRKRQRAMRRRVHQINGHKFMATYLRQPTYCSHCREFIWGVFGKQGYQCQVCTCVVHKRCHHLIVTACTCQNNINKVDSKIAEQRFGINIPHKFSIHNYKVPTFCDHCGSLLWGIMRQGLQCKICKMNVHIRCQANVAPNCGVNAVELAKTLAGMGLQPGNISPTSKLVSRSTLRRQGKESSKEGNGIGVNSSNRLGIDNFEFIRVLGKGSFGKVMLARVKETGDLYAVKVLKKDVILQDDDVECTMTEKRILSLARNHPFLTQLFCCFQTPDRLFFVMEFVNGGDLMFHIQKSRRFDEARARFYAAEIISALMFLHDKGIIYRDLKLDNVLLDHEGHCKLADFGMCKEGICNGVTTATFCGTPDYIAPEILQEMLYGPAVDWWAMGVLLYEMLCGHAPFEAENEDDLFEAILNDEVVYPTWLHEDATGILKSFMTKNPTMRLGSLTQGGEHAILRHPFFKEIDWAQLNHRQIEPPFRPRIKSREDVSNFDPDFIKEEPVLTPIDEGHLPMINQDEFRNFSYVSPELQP
# experiment summary: PKC Enzyme assay, eta isozyme
# Type: biochemical
# condition: PKC eta; 30 μM ATP, 30° C., 10 minutes; read-out: IC50 η
# Procedure: PKC enzymes=alpha, beta I, beta II, gamma, delta, epsilon, eta and zeta. Assay components in a total volume of 250 μL are the following: […]
In plain terms, pIC50 is the concentration in mol/L turned into minus its base-10 logarithm.

molecule	pIC50
Cn1cc(C2=C(c3cn(CCOC4O[C@H](CO)[C@@H](O)[C@@H](O)[C@H]4N=[N+]=[N-])c4ccccc34)C(=O)NC2=O)c2ccccc21 (some centres unmarked) [Example 60]	5.44
Cc1c(C2=C(c3cn(CN(C)C)c4ccccc34)C(=O)NC2=O)c2ccccc2n1CCCN(C)C [Example 15]	5.89
Cn1cc(C2=C(c3cn(CCOC4O[C@H](CO)[C@@H](O)[C@@H](N)[C@H]4O)c4ccccc34)C(=O)NC2=O)c2ccccc21 (some centres unmarked) [Example 67]	5.59
Cn1cc(C2=C(c3cn(CCCCOC4CC(O)C(CN)O4)c4ccccc34)C(=O)NC2=O)c2ccccc21 (centres unmarked) [Example 53]	5.77
CN1CCC(n2cc(C3=C(c4c[nH]c5ccccc45)C(=O)NC3=O)c3ccccc32)CC1 [Example 51]	7.40

Quickly give me recorded pIC50 for CC(=O)NC[C@H]1O[C@H](OCCn2cc(C3=C(c4cn(C)c5ccccc45)C(=O)NC3=O)c3ccccc32)C[C@@H]1O [Example 3] 5.96

Quickly give me recorded pIC50 for Cn1cc(C2=C(c3c4n(c5ccccc35)CCC(CO)C4)C(=O)NC2=O)c2ccccc21 (centres unmarked) [Example 9] 6.40

Quickly give me recorded pIC50 for Cn1cc(C2=C(c3cn(CCCCOC4C[C@H](O)[C@@H](CO)O4)c4ccccc34)C(=O)NC2=O)c2ccccc21 (some centres unmarked) [Example 56] 5.89

Quickly give me recorded pIC50 for Cn1cc(C2=C(c3cn(CCOC4OC(CN)C(O)C(O)C4O)c4ccccc34)C(=O)NC2=O)c2ccccc21 (centres unmarked) [Example 66] 5.52

Quickly give me recorded pIC50 for CC(C)(C)OC(=O)N1CCC(n2cc(C3=C(c4c[nH]c5ccccc45)C(=O)NC3=O)c3ccccc32)CC1 [Example 7] 5.21

Quickly give me recorded pIC50 for O=C1NC(=O)C(c2cn(Cc3ccccc3)c3ccccc23)=C1c1c[nH]c2ccccc12 [Example 14] 5.35

====

Parameter pIC50: see the listing below.
# target entity: protein kinase C delta (Homo sapiens, UniProt Q05655)
# Sequence (Q05655 whole entry): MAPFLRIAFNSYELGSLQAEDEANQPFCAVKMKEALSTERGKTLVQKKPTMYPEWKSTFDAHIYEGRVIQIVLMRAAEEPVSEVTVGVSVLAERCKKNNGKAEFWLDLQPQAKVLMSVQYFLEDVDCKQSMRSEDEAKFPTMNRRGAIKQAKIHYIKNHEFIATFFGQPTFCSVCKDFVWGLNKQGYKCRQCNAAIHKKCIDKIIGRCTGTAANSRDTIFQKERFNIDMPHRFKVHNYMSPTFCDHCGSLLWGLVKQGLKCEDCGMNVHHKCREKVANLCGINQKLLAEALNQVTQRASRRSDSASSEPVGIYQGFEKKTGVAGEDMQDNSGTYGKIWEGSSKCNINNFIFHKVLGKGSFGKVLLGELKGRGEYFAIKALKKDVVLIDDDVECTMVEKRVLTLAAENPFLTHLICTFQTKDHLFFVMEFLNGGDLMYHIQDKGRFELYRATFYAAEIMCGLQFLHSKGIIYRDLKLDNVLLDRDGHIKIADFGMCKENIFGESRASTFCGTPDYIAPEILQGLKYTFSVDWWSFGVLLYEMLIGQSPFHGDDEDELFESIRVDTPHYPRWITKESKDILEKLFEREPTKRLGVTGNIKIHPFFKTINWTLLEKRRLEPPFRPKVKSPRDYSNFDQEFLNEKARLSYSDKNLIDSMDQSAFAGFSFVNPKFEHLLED
# experiment summary: biochemical
# condition: PKC delta; 30 μM ATP, 30° C., 10 minutes; read-out: IC50 δ
In plain terms, pIC50 is the concentration in mol/L turned into minus its base-10 logarithm.

Would you please look over these solved cases?
compound	target entity	pIC50
CC(=O)NCC1OC(OCCCCn2cc(C3=C(c4cn(C)c5ccccc45)C(=O)N(C(C)=O)C3=O)c3ccccc32)CC1OC(C)=O (centres unmarked) [Example 70]	protein kinase C delta (Homo sapiens, UniProt Q05655)	5.49
CN1CCC(n2cc(C3=C(c4c[nH]c5ccccc45)C(=O)NC3=O)c3ccccc32)CC1 [Example 51]	protein kinase C delta (Homo sapiens, UniProt Q05655)	6.40
CN(C)CCCN1CCC(n2cc(C3=C(c4cn(C)c5ccccc45)C(=O)NC3=O)c3ccccc32)CC1 [Example 41]	protein kinase C delta (Homo sapiens, UniProt Q05655)	5.40
Cn1cc(C2=C(c3cn(CCOC4C[C@@H](N=[N+]=[N-])[C@@H](CO)O4)c4ccccc34)C(=O)NC2=O)c2ccccc21 (some centres unmarked) [Example 62]	protein kinase C delta (Homo sapiens, UniProt Q05655)	5.41

Consider the record given below.
Quickly give me recorded pIC50 for CC(=O)NC[C@H]1O[C@H](OCCn2cc(C3=C(c4cn(C)c5ccccc45)C(=O)NC3=O)c3ccccc32)C[C@@H]1O [Example 3] 6.39

====

# target entity: protein kinase C alpha (Homo sapiens)
# experiment summary: PKC Enzyme assay, alpha isozyme
# Format: biochemical
outcome measure: IC50 (µM)
# number only, unit µM dropped from output

Would you please look over these solved cases?
                                smiles_repr  value_reported
0  CN(C)CCCn1cc(C2=C(c3c[nH]c4ccccc34)C(=O)NC2=O)c2ccccc21            0.66
1  Cn1cc(C2=C(c3cn(C4CCN(Cc5ccccc5)CC4)c4ccccc34)C(=O)NC2=O)c2ccccc21               1

Consider the record given below.
Quickly give me recorded IC50 for Cn1cc(C2=C(c3cn(C4CCN(C(=O)OC(C)(C)C)CC4)c4ccccc34)C(=O)NC2=O)c2ccccc21 6.1

====

# target entity: protein kinase C epsilon (Homo sapiens)
# experiment summary: PKC Enzyme assay, epsilon isozyme
# Type: biochemical
# condition: PKC epsilon; 30 μM ATP, 30° C., 10 minutes; read-out: IC50 ε
outcome measure: IC50 (µM)
# number only, unit µM dropped from output

                                   compound  outcome_measure  value_reported
0  Cc1c(C2=C(c3c(C)n(CN(C)C)c4ccccc34)C(=O)NC2=O)c2ccccc2n1CCCN(C)C             IC50              10

Quickly give me recorded IC50 for Cn1cc(C2=C(c3c[nH]c4ccccc34)C(=O)NC2=O)c2ccccc21 0.9

Quickly give me recorded IC50 for Cn1cc(C2=C(c3cn(CCCCOC4CC(O)C(CN)O4)c4ccccc34)C(=O)NC2=O)c2ccccc21 (stereo not shown) [Example 53] 6.6

Quickly give me recorded IC50 for CC(=O)NCC1OC(OCCCCn2cc(C3=C(c4cn(C)c5ccccc45)C(=O)N(C(C)=O)C3=O)c3ccccc32)CC1OC(C)=O (stereo not shown) 70

Quickly give me recorded IC50 for Cn1cc(C2=C(c3cn(C4CCN(CC5CC5)CC4)c4ccccc34)C(=O)NC2=O)c2ccccc21 0.9

Quickly give me recorded IC50 for Cn1cc(C2=C(c3c4n(c5ccccc35)CCC(CO)C4)C(=O)NC2=O)c2ccccc21 (stereo not shown) 3.8

Quickly give me recorded IC50 for CN(C)CCCN1CCC(n2cc(C3=C(c4cn(C)c5ccccc45)C(=O)NC3=O)c3ccccc32)CC1 1

====

Parameter pIC50: see the listing below.
# target entity: protein kinase C beta-1 (Homo sapiens, UniProt P05771)
# Sequence (P05771 whole entry): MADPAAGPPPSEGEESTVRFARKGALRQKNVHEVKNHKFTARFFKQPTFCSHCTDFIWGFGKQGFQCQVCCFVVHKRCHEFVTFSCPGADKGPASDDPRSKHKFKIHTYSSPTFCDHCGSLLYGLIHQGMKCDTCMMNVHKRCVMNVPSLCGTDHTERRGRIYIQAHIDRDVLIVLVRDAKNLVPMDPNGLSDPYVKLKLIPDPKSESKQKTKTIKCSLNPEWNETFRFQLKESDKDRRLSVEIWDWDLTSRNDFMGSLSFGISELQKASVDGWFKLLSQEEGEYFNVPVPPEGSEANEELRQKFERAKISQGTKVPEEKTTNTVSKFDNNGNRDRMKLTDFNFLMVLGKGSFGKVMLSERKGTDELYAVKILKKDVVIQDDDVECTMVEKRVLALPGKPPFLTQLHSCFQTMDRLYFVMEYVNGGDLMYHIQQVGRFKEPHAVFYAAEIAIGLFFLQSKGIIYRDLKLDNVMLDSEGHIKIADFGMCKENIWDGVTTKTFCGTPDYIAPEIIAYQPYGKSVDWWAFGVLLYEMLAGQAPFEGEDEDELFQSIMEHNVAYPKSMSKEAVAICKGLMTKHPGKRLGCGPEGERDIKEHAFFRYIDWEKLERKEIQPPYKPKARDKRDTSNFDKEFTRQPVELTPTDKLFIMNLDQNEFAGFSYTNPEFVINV
# experiment summary: PKC Enzyme assay, beta I isozyme
# Assay type: biochemical
In plain terms, pIC50 is the concentration in mol/L turned into minus its base-10 logarithm.

In [3]: df
Out[3]:
                                smiles_repr  outcome_measure  value_reported
0  Cn1cc(C2=C(c3cn(C4CCN(Cc5ccccc5)CC4)c4ccccc34)C(=O)NC2=O)c2ccccc21            pIC50            7.00

Quickly give me recorded pIC50 for Cn1cc(C2=C(c3cn(C4CCN(CC(F)(F)C(F)(F)C(F)(F)F)CC4)c4ccccc34)C(=O)NC2=O)c2ccccc21 5.52

Quickly give me recorded pIC50 for CN(C)CCCn1cc(C2=C(c3c[nH]c4ccccc34)C(=O)NC2=O)c2ccccc21 7.30

Quickly give me recorded pIC50 for Cn1cc(C2=C(c3cn(C4CCN(C(=O)OC(C)(C)C)CC4)c4ccccc34)C(=O)NC2=O)c2ccccc21 6.66

Quickly give me recorded pIC50 for CN(C)CCCn1cc(C2=C(c3cn(C)c4ccccc34)C(=O)NC2=O)c2ccccc21 6.85

====

# target entity: protein kinase C delta (Homo sapiens)
# experiment summary: biochemical
outcome measure: IC50 (nM)
# number only, unit nM dropped from output

In [3]: df
Out[3]:
                                smiles_repr                          target_entity  value_reported
0  Cn1cc(C2=C(c3cn(C4CCN(Cc5ccccc5)CC4)c4ccccc34)C(=O)NC2=O)c2ccccc21  protein kinase C delta (Homo sapiens)            2000
1  CN(C)CCCn1cc(C2=C(c3c[nH]c4ccccc34)C(=O)NC2=O)c2ccccc21  protein kinase C delta (Homo sapiens)             920

Quickly give me recorded IC50 for Cn1cc(C2=C(c3cn(C4CCN(C(=O)OC(C)(C)C)CC4)c4ccccc34)C(=O)NC2=O)c2ccccc21 7300

====

# target entity: protein kinase C epsilon (Homo sapiens, UniProt Q02156)
# Sequence (Q02156 whole entry): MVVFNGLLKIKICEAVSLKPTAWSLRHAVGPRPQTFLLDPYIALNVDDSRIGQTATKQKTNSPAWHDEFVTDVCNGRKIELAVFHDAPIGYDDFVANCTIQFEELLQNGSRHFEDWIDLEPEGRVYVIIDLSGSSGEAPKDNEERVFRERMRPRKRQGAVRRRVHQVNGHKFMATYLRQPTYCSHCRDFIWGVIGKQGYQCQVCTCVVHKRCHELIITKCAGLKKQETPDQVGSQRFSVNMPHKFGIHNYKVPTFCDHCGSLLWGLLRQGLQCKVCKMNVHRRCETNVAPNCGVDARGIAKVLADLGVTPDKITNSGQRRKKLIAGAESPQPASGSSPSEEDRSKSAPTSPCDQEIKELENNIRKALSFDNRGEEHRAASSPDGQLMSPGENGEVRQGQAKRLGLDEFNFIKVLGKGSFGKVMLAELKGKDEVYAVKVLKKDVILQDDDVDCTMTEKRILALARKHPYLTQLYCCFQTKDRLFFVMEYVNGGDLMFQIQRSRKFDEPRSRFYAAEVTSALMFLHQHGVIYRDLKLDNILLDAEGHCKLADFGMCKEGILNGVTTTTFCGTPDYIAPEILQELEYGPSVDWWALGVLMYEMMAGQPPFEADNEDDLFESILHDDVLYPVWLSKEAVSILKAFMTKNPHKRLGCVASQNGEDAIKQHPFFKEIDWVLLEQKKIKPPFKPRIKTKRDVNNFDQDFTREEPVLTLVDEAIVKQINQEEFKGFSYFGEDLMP
# experiment summary: PKC Enzyme assay, epsilon isozyme
# Type: biochemical
# condition: PKC epsilon; 30 μM ATP, 30° C., 10 minutes; read-out: IC50 ε
outcome measure: IC50

compound	IC50
Cn1cc(C2=C(c3cn(C4CCOC4)c4ccccc34)C(=O)NC2=O)c2ccccc21 (centres unmarked)	0.8 µM

Quickly give me recorded IC50 for CC(C)(C)OC(=O)N1CCC(n2cc(C3=C(c4c[nH]c5ccccc45)C(=O)NC3=O)c3ccccc32)CC1 6.3 µM
